# Tested on: Serratia marcescens NCTC 10211
# assayInfo: Peptidase activity detection on Columbia agar containing substrate
# Type: cell-based
# Design: key: − = no fluorescence detected; e = trace of fluorescence; +/− = weak fluorescence; + = medium fluorescence; ++ = strong fluorescence; NG = No Growth
# cond: substrate 100 mg/l, 24 hours at 37° C., UV 360-365 nm
measurementKind: fluorescence intensity

- C[C@H](N)C(=O)Nc1ccccc1-c1nc2cc(Cl)ccc2o1 [Substrate 4]: ++
- COc1cc(NC(=O)CCN)c(-c2nc3ccccc3o2)cc1OC [Substrate 11]: +
- C[C@H](N)C(=O)Nc1ccc(Cl)cc1-c1nc2ccccc2s1 [Substrate 19]: −
- C[C@H](N)C(=O)Nc1ccccc1-c1nc2ccccc2n1CCc1ccccc1 [Substrate 14]: +/−
- C[C@H](N)C(=O)Nc1ccccc1-c1nc2ccccc2o1 [Substrate 1]: ++
- NCCC(=O)Nc1ccccc1-c1nc2ccccc2s1 [Substrate 18]: ++
- NCCC(=O)Nc1ccccc1-c1nc2ccccc2o1 [Substrate 2]: +
- C[C@H](N)C(=O)Nc1ccccc1-c1nc2ccccc2s1 [Substrate 17]: +
- NCC(=O)Nc1ccccc1-c1nc2ccccc2o1 [Substrate 3]: ++
- C[C@H](N)C(=O)Nc1cc2c(cc1-c1nc3ccccc3n1CCc1ccccc1)OCO2 [Substrate 16]: ++
